Data credit: PubChem BioAssay AID2060488

- System: 966289-007-R4-J1-PDC complex spheroid viability
- Assay Comment: Anticancer human tumor 966289-007-R4-J1-PDC patient-derived pancreatic adenocarcinoma cell line growth inhibition [GQUAD]
- Measurement Conditions: second compound 0.0316 µM; first compound 3.16 µM; stronger effect = lower value
Quantity Name: viability, T/C (%)
Please respond with the number in % and leave the unit unwritten.

Please review the following examples before continuing.
CC(C)n1c(=O)n(C)c2cnc3cc(F)c(-c4ccc(OCCCN5CCCCC5)nc4)cc3c21 + Cc1cnc(CNC(=O)c2c(=O)c3ccc(N4CCCN(C)CC4)nc3n3c2sc2ccccc23)cn1 = 33.4
COc1cc(C2c3cc4c(cc3C(OC3OC5COC(C)OC5C(O)C3O)C3COC(=O)C23)OCO4)cc(OC)c1O (stereo unspecified) + CN(C)c1ccc(Nc2c3ccc(NC(=O)CCN4CCCC4)cc3nc3cc(NC(=O)CCN4CCCC4)ccc23)cc1 = 1.79
CCCS(=O)(=O)Nc1ccc(F)c(C(=O)c2c[nH]c3ncc(-c4ccc(Cl)cc4)cc23)c1F + Cc1[nH]c2ccc(F)cc2c1-c1nc2c3cccnc3c3ncccc3c2[nH]1 = 113
COc1cccc2c1C(=O)c1c(O)c3c(c(O)c1C2=O)CC(O)(C(=O)CO)CC3OC1CC(N)C(O)C(C)O1 (stereo unspecified) + CN(C)c1ccc(Nc2c3ccc(NC(=O)CCN4CCCC4)cc3nc3cc(NC(=O)CCN4CCCC4)ccc23)cc1 = 0.35

QUERY: // returns reported viability, T/C for input C=CC(=O)N1CCN(c2nc(=O)n(-c3c(C)ccnc3C(C)C)c3nc(-c4c(O)cccc4F)c(F)cc23)C(C)C1 (stereo unspecified) + CN(C)c1ccc(Nc2c3ccc(NC(=O)CCN4CCCC4)cc3nc3cc(NC(=O)CCN4CCCC4)ccc23)cc1
RESULT: 106

QUERY: Entry O=c1[nH]cc(F)c(=O)[nH]1 + Cc1cnc(CNC(=O)c2c(=O)c3ccc(N4CCCN(C)CC4)nc3n3c2sc2ccccc23)cn1 please
RESULT: 6.16

QUERY: Repeat for the following compound: CC1COCCN1c1cc(-c2ccnn2C)c2ccnc(-c3ccn[nH]3)c2n1 (stereo unspecified) + Cc1cnc(CNC(=O)c2c(=O)c3ccc(N4CCCN(C)CC4)nc3n3c2sc2ccccc23)cn1
RESULT: 3.36

QUERY: Item: Nc1ccn(C2OC(CO)C(O)C2(F)F)c(=O)n1 (stereo unspecified) + Cc1[nH]c2ccc(F)cc2c1-c1nc2c3cccnc3c3ncccc3c2[nH]1
RESULT: 1.15

QUERY: Try C#Cc1c(F)ccc2cc(O)cc(-c3ncc4c(N5CC6CCC(C5)N6)nc(OCC56CCCN5CC(F)C6)nc4c3F)c12 (stereo unspecified) + CN(C)c1ccc(Nc2c3ccc(NC(=O)CCN4CCCC4)cc3nc3cc(NC(=O)CCN4CCCC4)ccc23)cc1 next.
RESULT: 95.9

QUERY: Same read-out for O=c1[nH]cc(F)c(=O)[nH]1 + Cc1[nH]c2ccc(F)cc2c1-c1nc2c3cccnc3c3ncccc3c2[nH]1 ?
RESULT: 6.03

QUERY: Field entry: COc1ccc([C@@H](O)c2cc(-c3ncnc4cc(N5CCOCC5)ccc34)c(F)cc2Cl)nn1 + Cc1cnc(CNC(=O)c2c(=O)c3ccc(N4CCCN(C)CC4)nc3n3c2sc2ccccc23)cn1
RESULT: 36

====

- Tested on: 966289-007-R4-J1-PDC complex spheroid viability
- Assay Comment: Anticancer human tumor 966289-007-R4-J1-PDC cell line growth inhibition [GQUAD];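 note: spheroids exposed to the agents for seven days before readout; percent viability relative to DMSO vehicle control wells taken as 100%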
- Measurement Conditions: second compound 1 µM; first compound 0.0316 µM; stronger effect = lower value
Mark rule met for viability, T/C under 5%, rule not met if at or over.

CCc1c2c(nc3ccc(O)cc13)-c1cc3c(c(=O)n1C2)COC(=O)[C@]3(O)CC + Cc1[nH]c2ccc(F)cc2c1-c1nc2c3cccnc3c3ncccc3c2[nH]1 = rule met
O=c1[nH]cc(F)c(=O)[nH]1 + Cc1[nH]c2ccc(F)cc2c1-c1nc2c3cccnc3c3ncccc3c2[nH]1 = rule not met
CC(C)n1c(=O)n(C)c2cnc3cc(F)c(-c4ccc(OCCCN5CCCCC5)nc4)cc3c21 + Cc1[nH]c2ccc(F)cc2c1-c1nc2c3cccnc3c3ncccc3c2[nH]1 = rule not met
C=CC(=O)N1CCN(c2nc(=O)n(-c3c(C)ccnc3C(C)C)c3nc(-c4c(O)cccc4F)c(F)cc23)C(C)C1 (stereo unspecified) + CN(C)c1ccc(Nc2c3ccc(NC(=O)CCN4CCCC4)cc3nc3cc(NC(=O)CCN4CCCC4)ccc23)cc1 = rule not met
C=CCn1c(=O)c2cnc(Nc3ccc(N4CCN(C)CC4)cc3)nc2n1-c1cccc(C(C)(C)O)n1 + Cc1cnc(CNC(=O)c2c(=O)c3ccc(N4CCCN(C)CC4)nc3n3c2sc2ccccc23)cn1 = rule met

QUERY: Hi there! Is viability, T/C for CC1COCCN1c1cc(C2(S(C)(=N)=O)CC2)nc(-c2ccnc3[nH]ccc23)n1 (stereo unspecified) + Cc1[nH]c2ccc(F)cc2c1-c1nc2c3cccnc3c3ncccc3c2[nH]1 below 5%, do you know?
RESULT: rule not met

====

- Tested on: 966289-007-R4-J1-PDC complex spheroid viability
- Assay Comment: Anticancer human tumor 966289-007-R4-J1-PDC cell line growth inhibition [GQUAD]; active = viability on the fitted dose curve at most 10% of control; inactive = the rest;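 note: spheroids exposed to the agents for seven days before readout; percent viability relative to DMSO vehicle control wells taken as 100%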
- Measurement Conditions: second compound 0.1 µM; first compound 0.1 µM
Your reply should match one of these outcome classes. active, inactive

Below are worked cases with known answers.
CCCS(=O)(=O)Nc1ccc(F)c(C(=O)c2c[nH]c3ncc(-c4ccc(Cl)cc4)cc23)c1F + Cc1cnc(CNC(=O)c2c(=O)c3ccc(N4CCCN(C)CC4)nc3n3c2sc2ccccc23)cn1 = inactive
CC1COCCN1c1cc(C2(O)CC3CCC(C2)O3)c2cnn(-c3ccn[nH]3)c2n1 (stereo not given) + Cc1cnc(CNC(=O)c2c(=O)c3ccc(N4CCCN(C)CC4)nc3n3c2sc2ccccc23)cn1 = active

QUERY: Field: outcome | Entry: C=CCn1c(=O)c2cnc(Nc3ccc(N4CCN(C)CC4)cc3)nc2n1-c1cccc(C(C)(C)O)n1 + Cc1[nH]c2ccc(F)cc2c1-c1nc2c3cccnc3c3ncccc3c2[nH]1
RESULT: inactive

QUERY: Also check COc1ccc([C@@H](O)c2cc(-c3ncnc4cc(N5CCOCC5)ccc34)c(F)cc2Cl)nn1 + Cc1cnc(CNC(=O)c2c(=O)c3ccc(N4CCCN(C)CC4)nc3n3c2sc2ccccc23)cn1
RESULT: inactive

QUERY: Same again, this time with CCCS(=O)(=O)Nc1ccc(F)c(C(=O)c2c[nH]c3ncc(-c4ccc(Cl)cc4)cc23)c1F + CN(C)c1ccc(Nc2c3ccc(NC(=O)CCN4CCCC4)cc3nc3cc(NC(=O)CCN4CCCC4)ccc23)cc1
RESULT: inactive

====

- Tested on: 966289-007-R4-J1-PDC complex spheroid viability
- Assay Comment: Anticancer human tumor 966289-007-R4-J1-PDC cell line growth inhibition [GQUAD];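 note: spheroids exposed to the agents for seven days before readout; percent viability relative to DMSO vehicle control wells taken as 100%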
- Measurement Conditions: second compound 0.1 µM; first compound 10 µM; stronger effect = lower value
Decision: viability, T/C beneath 20% gives label 1; viability, T/C meeting or exceeding 20% gives label 0.

For orientation, consider the following solved cases.
CCCS(=O)(=O)Nc1ccc(F)c(C(=O)c2c[nH]c3ncc(-c4ccc(Cl)cc4)cc23)c1F + Cc1[nH]c2ccc(F)cc2c1-c1nc2c3cccnc3c3ncccc3c2[nH]1 = label 0
COc1cc(C2c3cc4c(cc3C(OC3OC5COC(C)OC5C(O)C3O)C3COC(=O)C23)OCO4)cc(OC)c1O (stereo not given) + CN(C)c1ccc(Nc2c3ccc(NC(=O)CCN4CCCC4)cc3nc3cc(NC(=O)CCN4CCCC4)ccc23)cc1 = label 1
CC1COCCN1c1cc(C2(O)CC3CCC(C2)O3)c2cnn(-c3ccn[nH]3)c2n1 (stereo not given) + Cc1[nH]c2ccc(F)cc2c1-c1nc2c3cccnc3c3ncccc3c2[nH]1 = label 1

QUERY: Strictly below 20%: is that where viability, T/C of CCCS(=O)(=O)Nc1ccc(F)c(C(=O)c2c[nH]c3ncc(-c4ccc(Cl)cc4)cc23)c1F + CN(C)c1ccc(Nc2c3ccc(NC(=O)CCN4CCCC4)cc3nc3cc(NC(=O)CCN4CCCC4)ccc23)cc1 sits?
RESULT: label 0

QUERY: Please answer likewise for CC(C)n1c(=O)n(C)c2cnc3cc(F)c(-c4ccc(OCCCN5CCCCC5)nc4)cc3c21 + Cc1cnc(CNC(=O)c2c(=O)c3ccc(N4CCCN(C)CC4)nc3n3c2sc2ccccc23)cn1
RESULT: label 1

====

- Test system: 966289-007-R4-J1-PDC complex spheroid viability
- Assay Comment: Anticancer human tumor 966289-007-R4-J1-PDC cell line growth inhibition [GQUAD];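 note: spheroids exposed to the agents for seven days before readout; percent viability relative to DMSO vehicle control wells taken as 100%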
- Measurement Conditions: second compound 0.1 µM; first compound 10 µM; stronger effect = lower value
Quantity Name: viability, T/C (%)
Kindly provide the numeric value in % only, without the unit symbol.

CC1COCCN1c1cc(-c2ccnn2C)c2ccnc(-c3ccn[nH]3)c2n1 (stereo not given) + Cc1[nH]c2ccc(F)cc2c1-c1nc2c3cccnc3c3ncccc3c2[nH]1 = 3
O=c1[nH]cc(F)c(=O)[nH]1 + CN(C)c1ccc(Nc2c3ccc(NC(=O)CCN4CCCC4)cc3nc3cc(NC(=O)CCN4CCCC4)ccc23)cc1 = 6.55
O=C(c1cc(Cc2n[nH]c(=O)c3ccccc23)ccc1F)N1CCN(C(=O)C2CC2)CC1 + CN(C)c1ccc(Nc2c3ccc(NC(=O)CCN4CCCC4)cc3nc3cc(NC(=O)CCN4CCCC4)ccc23)cc1 = 10.2
Nc1ccn(C2OC(CO)C(O)C2(F)F)c(=O)n1 (stereo not given) + CN(C)c1ccc(Nc2c3ccc(NC(=O)CCN4CCCC4)cc3nc3cc(NC(=O)CCN4CCCC4)ccc23)cc1 = 1.03
O=C(c1cc(Cc2n[nH]c(=O)c3ccccc23)ccc1F)N1CCN(C(=O)C2CC2)CC1 + Cc1cnc(CNC(=O)c2c(=O)c3ccc(N4CCCN(C)CC4)nc3n3c2sc2ccccc23)cn1 = 4.33
CC(=O)O[C@H]1C(=O)[C@@]2(C)[C@H]([C@H](OC(=O)c3ccccc3)[C@]3(O)C[C@H](OC(=O)[C@H](O)[C@@H](NC(=O)c4ccccc4)c4ccccc4)C(C)=C1C3(C)C)[C@]1(OC(C)=O)CO[C@@H]1C[C@@H]2O + CN(C)c1ccc(Nc2c3ccc(NC(=O)CCN4CCCC4)cc3nc3cc(NC(=O)CCN4CCCC4)ccc23)cc1 = 13.5

QUERY: Requested read-out: viability, T/C. Entry: Cc1cccc(N(C)C(=O)C2C(O)CCN2c2nc(C)cc(C(F)(F)F)c2C#N)c1 (stereo not given) + Cc1[nH]c2ccc(F)cc2c1-c1nc2c3cccnc3c3ncccc3c2[nH]1
RESULT: 103
